# MEASUREMENT PROTOCOL: The compound was evaluated for plasma half life period in rat
# Format: ADME, organism-based
PROPERTY MEASURED: half-life
Returns: string containing the numeric result and its unit.

# COMPOUND, TEST RESULT
measured = [
    ("CCc1nc(C2CC2)c(C(N)=O)n1Cc1ccc2oc(-c3ccccc3NS(=O)(=O)C(F)(F)F)c(Br)c2c1 [SAPRISARTAN]", "3.2 h"),
    ("CCc1nc(C)c(C(=O)NC)n1Cc1ccc2oc(-c3ccccc3NS(=O)(=O)C(F)(F)F)c(Br)c2c1", "1.2 h"),
]

Pending compound:
Challenge: Name the recorded half-life for CCCCc1nc(Cl)c(C(=O)O)n1Cc1ccc2oc(-c3ccccc3-c3nn[nH]n3)c(Br)c2c1 [ZOLASARTAN] .
Response given: 8 h

###

Please respond with reported pKB for every item in the list.
# MEASURED TARGET: Type-1 angiotensin II receptor (Oryctolagus cuniculus) (UniProt P34976)
# Sequence (P34976 whole entry): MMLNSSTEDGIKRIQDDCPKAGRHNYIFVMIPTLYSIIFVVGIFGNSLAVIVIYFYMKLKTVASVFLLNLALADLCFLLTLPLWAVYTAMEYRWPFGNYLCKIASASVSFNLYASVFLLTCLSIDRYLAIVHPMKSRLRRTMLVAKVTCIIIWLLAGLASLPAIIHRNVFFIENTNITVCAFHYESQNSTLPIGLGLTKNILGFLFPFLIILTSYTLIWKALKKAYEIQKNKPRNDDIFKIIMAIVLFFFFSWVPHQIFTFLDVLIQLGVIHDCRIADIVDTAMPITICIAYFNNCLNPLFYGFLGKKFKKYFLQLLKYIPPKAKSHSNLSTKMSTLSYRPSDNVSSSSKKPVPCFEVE
# MEASUREMENT PROTOCOL: Affinity for Angiotensin II receptor, type 1 by measuring its ability to antagonise the contractile effect of AngII in rabbit isolated thoracic aorta
# Format: functional, tissue-based
Answers are plain numbers.

Example entries begin here.
# SMILES STR, MEASURED TARGET, pKB
data = [
    ("CCc1nc(C)c(C(N)=O)n1Cc1ccc2oc(-c3ccccc3NS(=O)(=O)C(F)(F)F)c(Br)c2c1", "Type-1 angiotensin II receptor (Oryctolagus cuniculus) (UniProt P34976)", 9),
    ("CCc1nc(C(C)C)c(C(=O)NC)n1Cc1ccc2oc(-c3ccccc3NS(=O)(=O)C(F)(F)F)c(Br)c2c1", "Type-1 angiotensin II receptor (Oryctolagus cuniculus) (UniProt P34976)", 8.1),
    ("CCc1nc(C)c(C(=O)NC)n1Cc1ccc2oc(-c3ccccc3NS(=O)(=O)C(F)(F)F)c(Br)c2c1", "Type-1 angiotensin II receptor (Oryctolagus cuniculus) (UniProt P34976)", 9),
    ("CCNC(=O)c1c(C)nc(CC)n1Cc1ccc2oc(-c3ccccc3NS(=O)(=O)C(F)(F)F)c(Br)c2c1", "Type-1 angiotensin II receptor (Oryctolagus cuniculus) (UniProt P34976)", 9.5),
    ("CCc1nc(C2CC2)c(C(=O)NC)n1Cc1ccc2oc(-c3ccccc3NS(=O)(=O)C(F)(F)F)c(Br)c2c1", "Type-1 angiotensin II receptor (Oryctolagus cuniculus) (UniProt P34976)", 9.7),
]

# batch: return pKB for each of the 4 compounds below
1. CCc1nc(C2CC2)c(C(N)=O)n1Cc1ccc2oc(-c3ccccc3NS(=O)(=O)C(F)(F)F)c(Br)c2c1
2. CCc1nc(CC)n(Cc2ccc3oc(-c4ccccc4NS(=O)(=O)C(F)(F)F)c(Br)c3c2)c1C(=O)NC
3. CCc1nc(C)c(C(=O)N(C)C)n1Cc1ccc2oc(-c3ccccc3NS(=O)(=O)C(F)(F)F)c(Br)c2c1
4. CCc1nc(C)c(C(=O)NCC(F)(F)F)n1Cc1ccc2oc(-c3ccccc3NS(=O)(=O)C(F)(F)F)c(Br)c2c1

Response given:
1: 9; 2: 9; 3: 9.1; 4: 9.2

###

# MEASUREMENT PROTOCOL: The compound was evaluated for plasma clearance in rat
# Format: ADME, organism-based
# CONDITIONS USED: read-out: Clp
PROPERTY MEASURED: clearance (mL/min/kg)
Answers are plain numbers, in mL/min/kg.

Example entries begin here.
# SMILES STR, QUANTITY UNIT, clearance
data = [
    ("CCCCc1nc(Cl)c(C(=O)O)n1Cc1ccc2oc(-c3ccccc3-c3nn[nH]n3)c(Br)c2c1", "mL/min/kg", 0.8),
    ("CCc1nc(C2CC2)c(C(N)=O)n1Cc1ccc2oc(-c3ccccc3NS(=O)(=O)C(F)(F)F)c(Br)c2c1", "mL/min/kg", 8.9),
]

Pending molecule:
Challenge: Name the recorded clearance for CCc1nc(C)c(C(=O)NC)n1Cc1ccc2oc(-c3ccccc3NS(=O)(=O)C(F)(F)F)c(Br)c2c1 .
Response given: 42

###

# MEASUREMENT PROTOCOL: Bioavailability in rat
# Format: ADME, organism-based
# CONDITIONS USED: in vivo
PROPERTY MEASURED: bioavailability (%)
Answers are plain numbers, in %.

Example entries begin here.
# SMILES STR, bioavailability, %
measured = [
    ("CCCCc1nc(Cl)c(C(=O)O)n1Cc1ccc2oc(-c3ccccc3-c3nn[nH]n3)c(Br)c2c1", 3),
    ("CCc1nc(C2CC2)c(C(N)=O)n1Cc1ccc2oc(-c3ccccc3NS(=O)(=O)C(F)(F)F)c(Br)c2c1", 79),
]

Challenge: Name the recorded bioavailability for CCc1nc(C)c(C(=O)NC)n1Cc1ccc2oc(-c3ccccc3NS(=O)(=O)C(F)(F)F)c(Br)c2c1 .
Response given: 95

Measured values drawn from ChEMBL document CHEMBL1127121 for this set.
